Source: patent US20240279202A1

assay: Mouse PK analysis (blood/plasma concentration after oral administration); assay type: in vivo; conditions: mouse, plasma, oral, 90 mg/kg; mice, 2 h; read-out: Cal. Conc. Total (μM) 2 h
Parameter concentration at 2 h: see the listing below.

Molecule	concentration at 2 h
C[C@@H](C(=O)N(C)c1ccc2cc(-c3n[nH]c4c3CCC(C)(C)C4)[nH]c2c1)N1CCN(CC2CCN(c3ccc(C(=O)NC4CCC(=O)NC4=O)nc3)CC2)CC1 (some centres unmarked) [Compound 7]	0.29 µM
C[C@@]12Cc3[nH]nc(C(=O)Nc4cnn([C@H](c5ccccc5)C5CN(C(=O)C6CCN(c7ccc8c(c7)C(=O)N(C7CCC(=O)NC7=O)C8=O)CC6)C5)c4)c3C[C@@H]1C2(F)F (some centres unmarked) [Compound 38]	0.0046 µM
CN(C(=O)CCC1CCN(c2ccc3c(c2)C(=O)N(C2CCC(=O)NC2=O)C3=O)C1)c1ccc2cc(-c3n[nH]c4c3CCC(C)(C)C4)[nH]c2c1 (centres unmarked) [Compound 1]	1.7 µM
CN(C(=O)CCN1CCN(c2ccc3c(c2)C(=O)N(C2CCC(=O)NC2=O)C3=O)CC1)c1ccc2cc(-c3n[nH]c4c3CCC(C)(C)C4)[nH]c2c1 (centres unmarked) [Compound 2]	0.039 µM
CN(C(=O)C1CN(C2CCN(c3ccc4c(c3)C(=O)N(C3CCC(=O)NC3=O)C4=O)CC2)C1)c1ccc2cc(-c3n[nH]c4c3CCC(C)(C)C4)[nH]c2c1 (centres unmarked) [Compound 35]	0.155 µM
